Measurement Notes: oxaloacetate reductase activity, NADH absorption at 340 nm
Assay type: biochemical
Condition Notes: E. coli Mdh mutants; measured at 0.5 mM oxaloacetate
Parameter Measured: Max. specific activity, OAA (µmol/mg/min)
Note: unit µmol/mg/min is implicit; provide only the numeric part.

Value of measured Max. specific activity, OAA for the entry R81A M85E I12V: E. coli malate dehydrogenase mutant, SEQ ID No. 110 (protein, listed as Escherichia coli) MKVAVLGAAGGVGQALALLLKTQLPSGSELSLYDIAPVTPGVAVDLSHIPTAVKIKGFSGEDATPALEGADVVLISAGVAAKPGEDRSDLFNVNAGIVKNLVQQVAKTCPKACIGIITNPVNTTVAIAAEVLKKAGVYDKNKLFGVTTLDIIRSNTFVAELKGKQPGEVEVPVIGGHSGVTILPLLSQVPGVSFTEQEVADLTKRIQNAGTEVVEAKAGGGSATLSMGQAAARFGLSLVRALQGEQGVVECAYVEGDGQYARFFSQPLLLGKNGVEERKSIGTLSAFEQNALEGMLDTLKKDIALGEEFVNK : 2.2

Data origin: patent US11505811B2
